molecular target: Sigma 2 (Homo sapiens); test: Radioligand binding in vitro assay, Sigma 2
Sequence (Q5BJF2 whole entry): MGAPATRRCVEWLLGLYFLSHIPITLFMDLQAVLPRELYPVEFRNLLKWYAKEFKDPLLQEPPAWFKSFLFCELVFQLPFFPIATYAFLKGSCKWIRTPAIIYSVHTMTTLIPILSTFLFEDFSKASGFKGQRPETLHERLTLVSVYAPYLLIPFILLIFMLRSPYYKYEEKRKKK
observable: Ki (nM)
Write it as a number; the unit nM goes unstated.

Request: Report Ki for CN(C)CCc1c[nH]c2ccccc12 [N,N-dimethyltryptamine, reference compound] please.
Response: 777

* * *

target: Sigma 1 (Homo sapiens, UniProt Q99720); assay: Radioligand binding in vitro assay, Sigma 1
Sequence (Q99720 whole entry): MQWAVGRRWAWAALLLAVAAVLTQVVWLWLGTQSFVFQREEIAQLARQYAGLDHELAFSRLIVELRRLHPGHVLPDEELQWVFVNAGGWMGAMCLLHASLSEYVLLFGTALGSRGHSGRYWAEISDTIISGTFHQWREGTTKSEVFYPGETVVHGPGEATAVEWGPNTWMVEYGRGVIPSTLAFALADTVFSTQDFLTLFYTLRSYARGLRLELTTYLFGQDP
observable: pKi
Quick note: pKi values are minus log10 of concentrations in mol/L.

Request: Name the recorded pKi for CN(C)CCc1c[nH]c2ccccc12 [N,N-dimethyltryptamine, reference compound] .
Response: 6.64

* * *

molecular target: 5-HT1B (Homo sapiens, UniProt P28222); experiment: Radioligand binding in vitro assay, 5-HT1B
Sequence (P28222 whole entry): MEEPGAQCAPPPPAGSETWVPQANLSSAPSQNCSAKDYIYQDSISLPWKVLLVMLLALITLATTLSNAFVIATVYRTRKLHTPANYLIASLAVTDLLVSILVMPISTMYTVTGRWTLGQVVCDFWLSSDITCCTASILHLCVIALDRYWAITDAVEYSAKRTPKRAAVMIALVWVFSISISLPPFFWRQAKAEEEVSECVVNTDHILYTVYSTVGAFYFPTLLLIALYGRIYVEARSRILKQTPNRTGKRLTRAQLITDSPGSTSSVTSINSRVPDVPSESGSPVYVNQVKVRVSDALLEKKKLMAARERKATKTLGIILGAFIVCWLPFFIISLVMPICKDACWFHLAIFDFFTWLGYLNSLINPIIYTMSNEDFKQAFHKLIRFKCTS
observable: Ki (nM)
Write the answer as a number in nM, unit excluded.

Request: Requested field: Ki. Item: CN(C)CCc1c[nH]c2ccccc12 [N,N-dimethyltryptamine, reference compound]
Response: 557
